- Tested on: PDE4B1 (Homo sapiens, UniProt Q07343)
- Construct: purchased Eurofins Panlabs Discovery Services Taiwan, Ltd. (contract assay); host or cells: insect Sf9 cells
- Sequence (Q07343 whole entry): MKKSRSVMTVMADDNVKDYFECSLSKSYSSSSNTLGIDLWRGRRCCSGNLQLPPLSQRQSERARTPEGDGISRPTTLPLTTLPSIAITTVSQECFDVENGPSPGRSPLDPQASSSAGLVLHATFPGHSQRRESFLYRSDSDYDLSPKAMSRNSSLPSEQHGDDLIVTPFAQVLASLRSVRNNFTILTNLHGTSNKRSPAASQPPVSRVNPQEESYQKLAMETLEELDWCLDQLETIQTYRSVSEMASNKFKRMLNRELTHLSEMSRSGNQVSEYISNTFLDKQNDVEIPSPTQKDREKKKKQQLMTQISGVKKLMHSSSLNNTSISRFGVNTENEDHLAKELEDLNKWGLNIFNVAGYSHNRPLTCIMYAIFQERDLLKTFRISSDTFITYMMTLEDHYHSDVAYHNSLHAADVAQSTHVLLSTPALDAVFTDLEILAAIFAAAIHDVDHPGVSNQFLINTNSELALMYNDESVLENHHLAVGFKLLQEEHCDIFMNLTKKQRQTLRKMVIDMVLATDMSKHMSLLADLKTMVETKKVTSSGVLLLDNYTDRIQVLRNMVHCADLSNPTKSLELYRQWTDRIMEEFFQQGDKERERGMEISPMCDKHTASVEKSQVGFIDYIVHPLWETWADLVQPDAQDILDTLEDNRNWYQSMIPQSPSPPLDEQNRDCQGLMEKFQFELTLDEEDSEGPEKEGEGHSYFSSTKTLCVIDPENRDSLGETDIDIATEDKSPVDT
- Method summary: PDE enzyme (kinase) assay, PDE4B1
- Type: biochemical
- Stated conditions: IC50, PDE4B1; bound stated in the discussion
Measured metric: IC50

Exercise: // query IC50 value for entry COc1ccc(-c2cc(=O)c3c(OC)c(OC)c(OC)c(OC)c3o2)cc1OC
Key: ≤ 6.03 µM

---

- Tested on: PDE4A1A (Homo sapiens, UniProt P27815)
- Construct: purchased Eurofins Panlabs Discovery Services Taiwan, Ltd. (contract assay); host or cells: insect Sf9 cells
- Sequence (P27815 1-647 isoform P27815-4): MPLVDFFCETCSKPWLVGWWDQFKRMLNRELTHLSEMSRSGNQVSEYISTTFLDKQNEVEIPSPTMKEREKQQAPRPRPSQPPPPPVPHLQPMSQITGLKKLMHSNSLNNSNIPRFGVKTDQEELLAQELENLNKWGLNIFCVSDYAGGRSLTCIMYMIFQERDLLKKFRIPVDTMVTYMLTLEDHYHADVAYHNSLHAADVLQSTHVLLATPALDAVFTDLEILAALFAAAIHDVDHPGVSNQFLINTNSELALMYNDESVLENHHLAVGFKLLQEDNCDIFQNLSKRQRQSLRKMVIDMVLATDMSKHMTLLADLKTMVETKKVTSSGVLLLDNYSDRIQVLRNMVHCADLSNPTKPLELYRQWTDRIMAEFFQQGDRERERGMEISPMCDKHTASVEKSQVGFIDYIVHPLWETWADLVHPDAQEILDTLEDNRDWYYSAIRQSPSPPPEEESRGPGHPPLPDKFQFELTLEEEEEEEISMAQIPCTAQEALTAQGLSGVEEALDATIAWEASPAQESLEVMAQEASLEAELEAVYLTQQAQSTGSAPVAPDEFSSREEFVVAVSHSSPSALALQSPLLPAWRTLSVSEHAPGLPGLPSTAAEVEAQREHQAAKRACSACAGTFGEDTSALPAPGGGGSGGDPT
- Method summary: PDE enzyme (kinase) assay, PDE4A1A
- Format: biochemical
- Stated conditions: IC50 Dose, PDE4A1A; duplicate
Measured metric: pIC50
Friendly reminder that pIC50 comes from taking -log10 of the concentration in mol/L.

Exercise: // query pIC50 value for entry COc1ccc(-c2cc(=O)c3c(OC)c(OC)c(OC)c(OC)c3o2)cc1OC [nobiletin]
Key: 5.28

---

- Tested on: PDE2A (Homo sapiens, UniProt O00408)
- Sequence (O00408 whole entry): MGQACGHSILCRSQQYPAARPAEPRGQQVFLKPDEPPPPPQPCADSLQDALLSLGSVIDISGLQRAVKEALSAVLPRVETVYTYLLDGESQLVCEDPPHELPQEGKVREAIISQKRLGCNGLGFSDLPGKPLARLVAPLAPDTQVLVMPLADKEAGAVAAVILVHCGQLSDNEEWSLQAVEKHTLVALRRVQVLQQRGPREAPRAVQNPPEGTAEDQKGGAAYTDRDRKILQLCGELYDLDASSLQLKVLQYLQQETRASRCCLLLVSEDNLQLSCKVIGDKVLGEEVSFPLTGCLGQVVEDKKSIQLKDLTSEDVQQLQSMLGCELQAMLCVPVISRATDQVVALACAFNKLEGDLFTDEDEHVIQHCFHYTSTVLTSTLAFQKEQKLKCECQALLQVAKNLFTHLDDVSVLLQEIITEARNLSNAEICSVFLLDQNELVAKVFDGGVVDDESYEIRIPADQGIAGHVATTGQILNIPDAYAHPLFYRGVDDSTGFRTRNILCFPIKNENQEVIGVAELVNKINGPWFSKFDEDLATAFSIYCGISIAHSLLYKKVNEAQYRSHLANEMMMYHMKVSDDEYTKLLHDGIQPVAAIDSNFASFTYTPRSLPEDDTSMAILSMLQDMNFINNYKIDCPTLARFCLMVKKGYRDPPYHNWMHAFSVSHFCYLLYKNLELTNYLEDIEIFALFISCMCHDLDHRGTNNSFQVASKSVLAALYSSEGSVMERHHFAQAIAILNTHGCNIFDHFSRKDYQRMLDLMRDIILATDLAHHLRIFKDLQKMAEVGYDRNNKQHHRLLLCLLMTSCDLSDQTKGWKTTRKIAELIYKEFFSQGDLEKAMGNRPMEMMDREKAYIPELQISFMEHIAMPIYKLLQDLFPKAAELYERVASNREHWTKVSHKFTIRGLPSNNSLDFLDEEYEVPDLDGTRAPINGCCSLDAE
Measured metric: IC50 (µM)
# value in µM; strip the unit string

Exercise: Give recorded IC50 with PDE2A (Homo sapiens, UniProt O00408) for the following compound: COc1ccc(-c2cc(=O)c3c(OC)c(OC)c(OC)c(OC)c3o2)cc1OC
Key: 9.91

---

- Tested on: PDE6 (Bos taurus, UniProt P11541+P23439)
- Construct: Bovine retinal rod outer segments; tissue Eurofins Panlabs Discovery Services Taiwan, Ltd. (contract assay)
- Sequence (P11541 2-856 limits assumed): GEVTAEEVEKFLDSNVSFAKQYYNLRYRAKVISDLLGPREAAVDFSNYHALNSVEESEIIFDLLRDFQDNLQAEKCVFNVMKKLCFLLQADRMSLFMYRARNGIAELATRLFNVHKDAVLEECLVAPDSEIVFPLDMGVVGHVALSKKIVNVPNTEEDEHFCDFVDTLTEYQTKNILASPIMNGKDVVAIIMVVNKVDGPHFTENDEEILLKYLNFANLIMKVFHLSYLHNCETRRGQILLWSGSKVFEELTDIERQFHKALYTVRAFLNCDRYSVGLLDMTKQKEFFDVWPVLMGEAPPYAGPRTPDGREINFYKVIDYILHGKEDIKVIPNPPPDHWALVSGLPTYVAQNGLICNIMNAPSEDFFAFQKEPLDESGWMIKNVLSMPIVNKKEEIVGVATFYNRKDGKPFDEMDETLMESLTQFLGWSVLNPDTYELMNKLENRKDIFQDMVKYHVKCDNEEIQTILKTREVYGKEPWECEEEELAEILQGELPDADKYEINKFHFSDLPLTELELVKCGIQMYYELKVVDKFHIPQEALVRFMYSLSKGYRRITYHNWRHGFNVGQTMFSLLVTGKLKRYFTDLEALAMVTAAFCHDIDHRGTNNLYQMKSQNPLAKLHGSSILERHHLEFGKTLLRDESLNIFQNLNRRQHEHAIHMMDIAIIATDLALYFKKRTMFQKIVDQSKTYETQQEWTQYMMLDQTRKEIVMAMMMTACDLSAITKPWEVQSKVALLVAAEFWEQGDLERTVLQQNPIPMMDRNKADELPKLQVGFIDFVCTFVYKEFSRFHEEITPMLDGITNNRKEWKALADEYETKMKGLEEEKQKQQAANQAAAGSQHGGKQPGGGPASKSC
- Sequence (P23439 2-850 limits assumed): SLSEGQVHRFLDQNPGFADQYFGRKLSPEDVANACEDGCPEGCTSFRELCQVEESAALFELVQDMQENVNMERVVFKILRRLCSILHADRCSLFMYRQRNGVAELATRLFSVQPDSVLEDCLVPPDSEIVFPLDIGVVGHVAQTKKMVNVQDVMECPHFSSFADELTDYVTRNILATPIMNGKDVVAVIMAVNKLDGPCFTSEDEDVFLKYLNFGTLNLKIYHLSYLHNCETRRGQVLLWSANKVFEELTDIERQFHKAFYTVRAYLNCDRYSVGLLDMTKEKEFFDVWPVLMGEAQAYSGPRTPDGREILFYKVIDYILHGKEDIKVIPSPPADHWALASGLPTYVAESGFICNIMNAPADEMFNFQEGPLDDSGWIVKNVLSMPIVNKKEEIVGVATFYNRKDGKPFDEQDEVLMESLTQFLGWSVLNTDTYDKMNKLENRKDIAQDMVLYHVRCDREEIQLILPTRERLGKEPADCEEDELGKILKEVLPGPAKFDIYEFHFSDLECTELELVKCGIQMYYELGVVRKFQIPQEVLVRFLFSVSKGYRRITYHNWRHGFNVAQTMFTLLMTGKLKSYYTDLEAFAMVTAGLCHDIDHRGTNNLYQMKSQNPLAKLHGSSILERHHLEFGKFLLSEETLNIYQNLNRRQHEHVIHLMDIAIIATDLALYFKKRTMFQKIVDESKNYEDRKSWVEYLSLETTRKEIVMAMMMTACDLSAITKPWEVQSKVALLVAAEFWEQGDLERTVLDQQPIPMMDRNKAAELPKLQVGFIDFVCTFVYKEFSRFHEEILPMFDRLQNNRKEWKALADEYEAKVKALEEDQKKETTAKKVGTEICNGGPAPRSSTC
- Method summary: PDE enzyme  assay, PDE6
Measured metric: pIC50
Friendly reminder that pIC50 comes from taking -log10 of the concentration in mol/L.

Exercise: // query pIC50 value for entry COc1ccc(-c2cc(=O)c3c(OC)c(OC)c(OC)c(OC)c3o2)cc1OC
Key: 4.13

---

- Tested on: PDE5A (Homo sapiens, UniProt O76074)
Measured metric: IC50 (µM)
# value in µM; strip the unit string

Exercise: Give recorded IC50 with PDE5A (Homo sapiens, UniProt O76074) for the following compound: COc1ccc(-c2cc(=O)c3c(OC)c(OC)c(OC)c(OC)c3o2)cc1OC
Key: 14.8

---

- Tested on: PDE4B1 (Homo sapiens)
- Construct: purchased Eurofins Panlabs Discovery Services Taiwan, Ltd. (contract assay); host or cells: insect Sf9 cells
- Method summary: PDE enzyme (kinase) assay, PDE4B1
- Assay type: biochemical
- Stated conditions: IC50 Dose, PDE4B1; duplicate
- Procedure: Enzyme assays for various subtypes of PDE (Table 1 and Figure 4) were conducted by Eurofins Panlabs Discovery Services Taiwan, Ltd. (New Taipei City, Taiwan). […] IC50 values were determined by nonlinear least squares regression analysis using MathIQTM (ID Business Solutions Ltd., Woking, UK). […] The spectrofluorometric quantitation of fluorescein-AMP-IMAP, fluorescein-GMP-IMAP, or [^3H] guanosine was used depending on the PDE subtype. […]
Measured metric: IC50 (µM)
# value in µM; strip the unit string

Exercise: Give recorded IC50 with PDE4B1 (Homo sapiens) for the following molecule: COc1ccc(-c2cc(=O)c3c(OC)c(OC)c(OC)c(OC)c3o2)cc1OC [nobiletin]
Key: 6.03

---

- Tested on: PDE10A2 (Homo sapiens, UniProt Q9Y233)
- Construct: purchased Eurofins Panlabs Discovery Services Taiwan, Ltd. (contract assay); host or cells: insect Sf9 cells
- Sequence (Q9Y233 267-1055): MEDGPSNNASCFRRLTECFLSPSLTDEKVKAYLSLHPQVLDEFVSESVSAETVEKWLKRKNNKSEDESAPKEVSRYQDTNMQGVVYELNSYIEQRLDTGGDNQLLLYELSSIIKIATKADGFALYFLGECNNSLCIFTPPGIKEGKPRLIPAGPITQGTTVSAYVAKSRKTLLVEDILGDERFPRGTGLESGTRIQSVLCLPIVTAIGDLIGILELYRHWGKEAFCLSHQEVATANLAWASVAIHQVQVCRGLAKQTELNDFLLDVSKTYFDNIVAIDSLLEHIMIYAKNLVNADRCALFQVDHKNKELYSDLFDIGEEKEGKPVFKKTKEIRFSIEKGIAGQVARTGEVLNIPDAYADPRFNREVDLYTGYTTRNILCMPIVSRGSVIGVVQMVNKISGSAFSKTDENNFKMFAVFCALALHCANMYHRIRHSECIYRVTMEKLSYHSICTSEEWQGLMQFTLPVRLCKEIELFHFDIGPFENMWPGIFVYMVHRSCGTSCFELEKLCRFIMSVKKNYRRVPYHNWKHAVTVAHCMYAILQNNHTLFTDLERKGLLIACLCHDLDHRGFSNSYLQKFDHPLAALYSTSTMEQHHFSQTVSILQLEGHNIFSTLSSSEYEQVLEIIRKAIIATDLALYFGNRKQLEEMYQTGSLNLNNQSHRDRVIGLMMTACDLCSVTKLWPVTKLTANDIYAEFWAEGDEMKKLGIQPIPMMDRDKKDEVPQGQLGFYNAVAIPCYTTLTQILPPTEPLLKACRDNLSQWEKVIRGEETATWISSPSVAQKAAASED
- Method summary: PDE enzyme (kinase) assay, PDE10A2
- Format: biochemical
- Stated conditions: IC50 Dose, PDE10A2; duplicate
Measured metric: pIC50
Friendly reminder that pIC50 comes from taking -log10 of the concentration in mol/L.

Exercise: // query pIC50 value for entry COc1ccc(-c2cc(=O)c3c(OC)c(OC)c(OC)c(OC)c3o2)cc1OC
Key: 5.82
